system_name: T1, TPR2A domain of human Hop protein (codons 223-352) (human, UniProt P31948 225-352)
T1 construct: Expressed in E. coli, His6 tag cleaved with TEV; A selenomethionine-labelled form was made for MAD phasing; also called TRP2A
test_protocol: ITC, 25 °C
Ends that are not written are not given here.
quantity_kind: Kd (µM)
Answers are plain numbers, in µM.

In: Returns the measured Kd for the input binder. Input: Ac-EEVD (also called EEVD peptide; EEVD motif) [tetrapeptide EEVD]
Out: 90
